meta.source: PubChem BioAssay

Measured growth inhibition, listed per entry.
assay: Restrictive medium S. cerevisiae growth inhibition, OD615, pilot screen of yeast lifespan reduction project, restrictive growth control (AID 706); settings: OD615, 48 h, at 10 µM, hits give high values;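 also: modified DeaD lifespan yeast strain shifted to restrictive glucose medium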

>  <Molecule>
CCCCOc1ccc(NC(=O)C2CC=CCC2C(=O)O)cc1 (stereo not drawn)

>  <growth inhibition (%)>
-26.4

$$$$
>  <Molecule>
O=C1CC(c2nc3ccccc3[nH]2)CN1Cc1ccccc1 (stereo not drawn)

>  <growth inhibition (%)>
-0.09

$$$$
>  <Molecule>
CCOC(=O)C1CCN(CCC(=O)Nc2cccc(Cl)c2C)CC1

>  <growth inhibition (%)>
-0.95

$$$$
>  <Molecule>
CC(=O)NC(NC(C)=O)c1ccc(N(C)C)cc1

>  <growth inhibition (%)>
16.3

$$$$
>  <Molecule>
c1coc(CNc2nc3sc4c(c3c3ncnn23)CCCC4)c1

>  <growth inhibition (%)>
0.565

$$$$
>  <Molecule>
CNC(=O)c1ccc(-c2sc3nc(N4CCOCC4)c4c(c3c2N)CCCC4)o1

>  <growth inhibition (%)>
17.2

$$$$
>  <Molecule>
CCOC(=O)N1CCN(C(=O)C(CC(C)C)NC(=O)C2CCCCC2)CC1 (stereo not drawn)

>  <growth inhibition (%)>
-4.5

$$$$
>  <Molecule>
CCc1ccc(Cn2nnc(C(=O)NCc3ccccc3OC)c2N)cc1

>  <growth inhibition (%)>
5.92

$$$$
>  <Molecule>
COC(=O)c1coc(-c2ccc(C)cc2)c1C(=O)OC

>  <growth inhibition (%)>
2

$$$$
>  <Molecule>
CC1(C)CC(=O)C=C(NCCCNC2CCCCC2)C1

>  <growth inhibition (%)>
-7.88

$$$$
>  <Molecule>
NC(=O)CSc1nnc(Cn2c(=O)sc3ccccc32)n1CCc1ccccc1

>  <growth inhibition (%)>
26.2

$$$$
>  <Molecule>
Cc1ccsc1C(=O)OCC(=O)c1cc2ccccc2o1

>  <growth inhibition (%)>
-10.8

$$$$
>  <Molecule>
CN1CCN(c2ncnc3c2sc2nc(N4CCCC4)c4c(c23)CC(C)(C)OC4)CC1

>  <growth inhibition (%)>
-18.1

$$$$
>  <Molecule>
O=c1[nH]n(-c2ncnc3c2cnn3-c2ccccc2)c(=O)c2ccccc12

>  <growth inhibition (%)>
13.1

$$$$
>  <Molecule>
COCC(=O)NCc1nc2ccccc2[nH]1

>  <growth inhibition (%)>
-0.605

$$$$
>  <Molecule>
OC(COCc1cccs1)CN1CCN(c2ccccn2)CC1 (stereo not drawn)

>  <growth inhibition (%)>
-7.78

$$$$
>  <Molecule>
COc1ccc(OC)c(S(=O)(=O)NCc2cn3c(C)csc3n2)c1

>  <growth inhibition (%)>
5.41

$$$$
>  <Molecule>
COc1cccc(-c2nn(C)c3sc(C(=O)NCc4ccc5c(c4)OCO5)cc23)c1

>  <growth inhibition (%)>
9.31

$$$$
>  <Molecule>
CC(Oc1ccc(Cl)cc1)C(=O)Nc1nccs1 (stereo not drawn)

>  <growth inhibition (%)>
-5.78

$$$$
>  <Molecule>
COc1cccc(OC)c1C(=O)Nc1ccc2c(c1)OCCO2

>  <growth inhibition (%)>
0.395

$$$$
>  <Molecule>
O=C1CC(c2ccccc2)C(C(=O)O)N1 (stereo not drawn)

>  <growth inhibition (%)>
-18.1

$$$$
>  <Molecule>
COc1cc(-c2nc3cnccn3c2Nc2ccc3c(c2)OCCO3)ccc1O

>  <growth inhibition (%)>
-2.52

$$$$
>  <Molecule>
COc1ccccc1N1CCN(c2cc(=O)n(-c3ccc(Cl)cc3)c(=O)[nH]2)CC1

>  <growth inhibition (%)>
-7.77

$$$$
>  <Molecule>
O=C(O)[C@H](Cc1ccccc1)N1Cc2ccccc2C1=O

>  <growth inhibition (%)>
-15

$$$$
>  <Molecule>
CCn1c(CNC(=O)C(C)(C)C)nc2ccccc21

>  <growth inhibition (%)>
-10.8

$$$$
>  <Molecule>
CC(NC(=O)c1ccccc1O)c1ccccc1 (stereo not drawn)

>  <growth inhibition (%)>
-2.42

$$$$
>  <Molecule>
CC(=O)c1sc2ccccc2c1OC(=O)c1ccco1

>  <growth inhibition (%)>
-11.4

$$$$
>  <Molecule>
COc1ccc(-n2c(Cc3cc(=O)[nH]c(=O)[nH]3)nnc2SCc2ccccc2)cc1

>  <growth inhibition (%)>
-3.2

$$$$
>  <Molecule>
O=C(Cn1c(=O)oc2ccccc21)N1CCN(c2ccc(N3CCOCC3)nn2)CC1

>  <growth inhibition (%)>
-14

$$$$
>  <Molecule>
Cc1oc(-c2ccc(Cl)cc2)nc1CN1CCC(C(=O)N2CCc3ccccc3C2)CC1

>  <growth inhibition (%)>
-16.6

$$$$
>  <Molecule>
COc1ccc(C(C(=O)NC2CCCC2)N2CCc3ccccc32)cc1 (stereo not drawn)

>  <growth inhibition (%)>
-11.4

$$$$
>  <Molecule>
CCOC(=O)CNC(=O)c1cn(C)c(=O)c2cc(OC)c(OC)cc12

>  <growth inhibition (%)>
-3.25

$$$$
>  <Molecule>
Fc1ccc(Nc2nc(N3CCOCC3)c3ccccc3n2)cc1

>  <growth inhibition (%)>
-13.7

$$$$
